The entries below are paired with their reported melting point.

The following compounds have reported results that may help.
| Compound | melting point |
| --- | --- |
| O=C(NCc1cc(C(F)(F)F)cc(C(F)(F)F)c1)C(c1ccccc1)N1CCN(CCC2CC2)CC1 (stereo not shown) | 134 to 136 °C |
| CCC(=O)NC1CCN(C(C(=O)NCc2cc(C(F)(F)F)cc(C(F)(F)F)c2)c2ccccc2)CC1 (racemic) | 189 to 191 °C |
| O=C(NCCc1cc(C(F)(F)F)cc(C(F)(F)F)c1)C(c1ccccc1)N1CCC(N2CCCCC2)CC1 (stereo not shown) | 192 to 199 °C |

Quick one: melting point of Cc1nc2ccccc2n1C1CCN(C(C(=O)NCc2cc(C(F)(F)F)cc(C(F)(F)F)c2)c2ccccc2)CC1 (stereo not shown) ?
107 to 111 °C
